Target: T1, Peptide 4 (peanut)
T1 construct: also called linear Ara h 2 peptide 4
T1 peptide: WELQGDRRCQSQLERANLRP
Assay: competition ELISA, peptide in solution vs coated Ara h 2
Excerpt: A competition ELISA was used to evaluate binding of exemplary anti-peanut antibodies of the present invention to linear Ara h 2 epitopes. […] The plates were subsequently washed and binding of MAbs to Ara h 2 was detected HRP-conjugated goat anti human Fc-gamma-specific antibody (Jackson ImmunoResearch, West Grove, Pa., USA) followed by measurement of the HRP activity using a tetramethylbenzidine substrate solution (TMB, Sigma-Aldrich Chemie GmbH, Buchs, Switzerland). […]

[
  {
    "binder": "h32B10 (antibody, V domains shown, Recombinant human IgG; also called hMAb 32B10) VH: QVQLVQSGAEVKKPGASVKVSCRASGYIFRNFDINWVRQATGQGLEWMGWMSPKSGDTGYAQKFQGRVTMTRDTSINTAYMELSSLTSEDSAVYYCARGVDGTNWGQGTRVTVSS VL: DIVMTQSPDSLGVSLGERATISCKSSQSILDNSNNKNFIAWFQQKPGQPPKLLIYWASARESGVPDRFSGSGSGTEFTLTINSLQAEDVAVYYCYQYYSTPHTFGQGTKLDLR",
    "binding result": "binds"
  }
]
